Please consider the recorded pIC50 for dopamine D3 receptor (Homo sapiens, UniProt P35462) in what follows.
Give bare numbers, as −log10 of the molar value.

Worked examples follow.
compound	pIC50
Cc1ncc(C(=O)NC2CC(CCN3CCN(c4cccc(Cl)c4Cl)CC3)C2)o1 (stereo not shown) [Example 16A]	9.48
O=C(N[C@H]1C[C@H](CCN2CCN(c3cccc(Cl)c3Cl)CC2)C1)c1cccc2ncccc12 [Example 19A]	9.40
O=C(N[C@H]1C[C@H](CCN2CCN(c3cccc(Cl)c3Cl)CC2)C1)c1ccon1 [Example 17A]	9.52

In the following, a different compound is considered.
Suppose we examine the compound Cc1nc(C(=O)N[C@H]2C[C@H](CCN3CCN(c4cccc(Cl)c4Cl)CC3)C2)co1 [Example 18A] ; what pIC50 value has been reported? 9.38
